assayed.target: Thioredoxin reductase 2, mitochondrial (Rattus norvegicus)
Sequence (Q9Z0J5 whole entry): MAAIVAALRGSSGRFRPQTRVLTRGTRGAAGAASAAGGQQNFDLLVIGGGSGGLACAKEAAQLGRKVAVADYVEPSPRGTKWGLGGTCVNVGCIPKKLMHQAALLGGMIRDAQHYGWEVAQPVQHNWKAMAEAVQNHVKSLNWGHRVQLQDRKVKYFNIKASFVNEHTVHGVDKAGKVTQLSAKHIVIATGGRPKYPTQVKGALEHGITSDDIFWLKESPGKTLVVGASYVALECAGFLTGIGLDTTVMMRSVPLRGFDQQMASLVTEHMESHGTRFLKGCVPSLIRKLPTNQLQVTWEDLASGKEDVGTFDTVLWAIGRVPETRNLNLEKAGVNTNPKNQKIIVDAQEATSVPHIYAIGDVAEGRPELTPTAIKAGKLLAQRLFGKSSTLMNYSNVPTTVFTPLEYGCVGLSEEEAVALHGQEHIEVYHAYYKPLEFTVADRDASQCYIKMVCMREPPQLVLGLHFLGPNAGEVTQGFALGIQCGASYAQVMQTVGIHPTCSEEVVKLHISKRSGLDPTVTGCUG
test.description: Inhibition of rat liver mitochondrial TrxR2 by spectrophotometry
condition.set: read-out: IC50
pIC50: −log10 of the molar value.
observable: pIC50

O=C1c2cccc(O)c2C(=O)c2c(O)cccc21; < 3.70
Cc1cc(O)c2c(c1)C(=O)c1cc(O[C@@H]3O[C@@H](C)[C@H](O)[C@@H](O)[C@H]3O)cc(O)c1C2=O; < 3.70
Cc1cc(O)c2c(=O)c3c(O)cc(O)c4c5c(O)cc(O)c6c(=O)c7c(O)cc(CO)c8c1c2c(c34)c(c65)c78; 5.10
Cc1cc(O)c2c(=O)c3c(O)cc(O)c4c5c(O)cc(O)c6c(=O)c7c(O)cc(C)c8c1c2c(c34)c(c78)c65; 4.31
O=C1c2ccccc2Cc2ccccc21; < 3.70

Data request: Fill in the blank: the reported pIC50 of O=C1c2c(O)cccc2C([C@@H]2O[C@H](CO)[C@@H](O)[C@H](O)[C@H]2O)c2cc(CO)cc(O)c21 (stereo partly specified) is ____.
Data returned: < 3.70

Every entry's value here was drawn from ChEMBL document CHEMBL1641523.
